- Tested on: Vesicular stomatitis virus
- assay comment: Antiviral activity against VSV infected in CER cells assessed as reduction in plaque formation after 48 hrs by neutral red assay
- Type: functional
measured quantity: MIC50

Consider the worked cases shown below.
compound=CC/C(C)=C\C(=O)O[C@H]1[C@H](O[C@]2(C)CC[C@@H]3[C@H]([C@@H]4[C@H](C)CC[C@@H]42)C3(C)C)O[C@H](C)[C@H](O)[C@@H]1O result="> 20 µg/mL"
compound=C[C@@H]1CC[C@H]2[C@@H]1[C@H]1[C@@H](CC[C@@]2(C)O[C@@H]2O[C@H](C)[C@H](O)[C@H](O)[C@H]2O)C1(C)C result="14 µg/mL"
compound="CCC(C)C(=O)O[C@H]1[C@H](O[C@]2(C)CC[C@@H]3[C@H]([C@@H]4[C@H](C)CC[C@@H]42)C3(C)C)O[C@H](C)[C@H](O)[C@@H]1O (some centres not stated)" result="> 20 µg/mL"
compound=C/C=C(\C)C(=O)O[C@H]1[C@H](O[C@]2(C)CC[C@@H]3[C@H]([C@@H]4[C@H](C)CC[C@@H]42)C3(C)C)O[C@H](C)[C@H](O)[C@@H]1O result="> 20 µg/mL"
compound=CC(=O)O[C@H]1[C@H](O[C@]2(C)CC[C@@H]3[C@H]([C@@H]4[C@H](C)CC[C@@H]42)C3(C)C)O[C@H](C)[C@H](O)[C@@H]1O result="> 20 µg/mL"

Quick one: MIC50 for CC(C)C(=O)O[C@H]1[C@H](O[C@]2(C)CC[C@@H]3[C@H]([C@@H]4[C@H](C)CC[C@@H]42)C3(C)C)O[C@H](C)[C@H](O)[C@@H]1O ?
> 20 µg/mL

Quick one: MIC50 for CC(C)[C@@H]1CC[C@@H](C)C23CC[C@@](C)(O[C@@H]4O[C@H](C)[C@H](O)[C@H](O)[C@H]4O)[C@@H]2[C@@H]13 (some centres not stated) [EPICUBEBOL GLYCOSIDE] ?
36 µg/mL
